molecular target: PTH receptor (mouse, UniProt P41593); experiment: cell-based or functional assay
Non-standard residues stand in square brackets, D forms with d. No end group written: not given here. 2Nal = N[C@@H](Cc1ccc2ccccc2c1)C(=O)O
quantity_name: cAMP increase (pmol/well)

[[record]]
binder = "SVSEIQLMHDLGKHLNSMERVEWLRKKLQDVHNF [[Asp^10 ] hPTH(1-34)]"
quantity_name = "cAMP increase (pmol/well)"
measurement_unit = "pmol/well"
numeric_value = 0.6


A = SVSEIQLMHD[2Nal]GKHLNSMERVEWLRKKLQDVHNF [[Asp^10, Ala(2-Naph)^11 ] hPTH(1-34)]
B = SVSEIQLMHELGKHLNSMERVEWLRKKLQDVHNF [[Glu^10 ] hPTH(1-34)]
Inquiry: Which numeric cAMP increase (pmol/well) is bigger, that of A or that of B ? Please indicate the selected item by its label.
Reply text: A

Values were extracted from patent US6025467A.
